protocol.details: protein stability index of a GFP-peptide fusion (GPS, HEK-293T) (PSI 1-6); higher = more stable;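 further: 24-mer peptide tiles fused after GFP, lentivirally expressed, FACS-sorted into six equal bins by GFP/DsRed ratio, decoded by Illumina sequencing, PSI is the read-weighted mean bin number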
settings: treatment: DMSO; c terminus: a fixed tail appended
Kindly state protein stability index for each of the entries shown.
Answers are plain numbers.

Study these solved cases before continuing.
{"columns": ["construct.sequence", "protein stability index"],
 "data": [
  ["GKAATMEIPIHGNGEARQLPEDDG [ARFIP2]", 5.58],
  ["DAVTAALLIPKEDGVITASEDRTI [WDFY1]", 4.7],
  ["GAAESPYGHPAGIDYKTTTILLDG [RAB40B]", 4]
]}

Would you be so kind as to report protein stability index for each listed record?
1. FFVANKYWRYDEYKRSMDPGYPKM [MMP1]
2. KELIIFRLVAPTEGSLEWDILEVK [WDR41]
3. TEQFTAMRDLYMKNGQGFALVYSI [RAP1B]
4. GANINAFDKKDRRALHWAAYMGHL [ANKRD44]
5. RINLVAAIFSAPAFPAAVSSMKKF [PSD2]
6. AASSYSFSDLNSTRGDADMYDLPK [EMD]

Data returned:
[2.15, 2.22, 3.25, 2.3, 2.37, 4.43]

src = the supplement of paper PMC10567573
